# experimental-system: Muscarinic receptor M1 and M2 (Rattus norvegicus) (UniProt P08482+P10980)
# test-description: Ratio of [3H]QNB+GppNHp/[3H]-QNB
# Type: protein assay
Labelling: Ratio reported below 2 becomes Yes; at or above becomes No.

Illustrative cases are given below, each with its answer.
C[C@@H]1CC(=O)N(CC#CC[N+](C)(C)C)C1 No
C[C@@H]1CC(=O)N(CC#CCN(C)C)C1 No
C[C@H]1CCN(CC#CCN2CCCC2)C1=O No
C[C@H]1CC(=O)N(CC#CCN(C)C)C1 No
C[C@H]1CCN(CC#CCN(C)C)C1=O Yes

Task: Regarding O=C1CCCN1CC#CCN1CCCCC1 , kindly confirm whether its Ratio is beneath 2.
Result: No

Task: In plain terms, does C[C@H]1CC(=O)N(CC#CC[N+](C)(C)C)C1 come in under 2 for Ratio?
Result: Yes

* * *

# experimental-system: Muscarinic acetylcholine receptor M2 (Rattus norvegicus, UniProt P10980)
# Sequence (P10980 whole entry): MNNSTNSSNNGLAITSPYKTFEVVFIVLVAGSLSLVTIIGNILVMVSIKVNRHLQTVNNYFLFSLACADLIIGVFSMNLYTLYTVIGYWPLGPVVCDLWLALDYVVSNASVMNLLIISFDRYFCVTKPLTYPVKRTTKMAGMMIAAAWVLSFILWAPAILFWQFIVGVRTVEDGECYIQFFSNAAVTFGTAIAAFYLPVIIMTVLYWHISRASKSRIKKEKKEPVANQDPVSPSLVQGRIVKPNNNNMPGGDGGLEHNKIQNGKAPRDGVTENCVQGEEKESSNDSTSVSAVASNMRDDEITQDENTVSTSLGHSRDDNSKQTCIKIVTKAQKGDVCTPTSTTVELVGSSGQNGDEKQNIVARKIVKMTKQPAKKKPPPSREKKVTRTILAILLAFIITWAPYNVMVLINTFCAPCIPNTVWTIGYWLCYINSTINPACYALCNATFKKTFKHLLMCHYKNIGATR
# test-description: Binding affinity at [3H]QNB radiolabeled muscarinic M2 receptor in rat heart.
So I've got a bunch of molecules here, and I need their Ki values.
Answers are plain numbers, in nM.

Observe how each entry below is paired with its result.
molecule	experimental-system	Ki [nM]
C[C@H]1CCN(CC#CCN2CCCC2)C1=O	Muscarinic acetylcholine receptor M2 (Rattus norvegicus, UniProt P10980)	110
O=C1CCCN1CC#CCN1CCCCC1	Muscarinic acetylcholine receptor M2 (Rattus norvegicus, UniProt P10980)	70
C[C@@H]1CCN(CC#CCN(C)C)C1=O	Muscarinic acetylcholine receptor M2 (Rattus norvegicus, UniProt P10980)	240
CN(C)CC#CCN1CCCC1=O	Muscarinic acetylcholine receptor M2 (Rattus norvegicus, UniProt P10980)	70
C[C@@H]1CCN(CC#CCN2CCCC2)C1=O	Muscarinic acetylcholine receptor M2 (Rattus norvegicus, UniProt P10980)	90
C[C@H]1CC(=O)N(CC#CCN2CCCC2)C1	Muscarinic acetylcholine receptor M2 (Rattus norvegicus, UniProt P10980)	3800
C[C@@H]1CC(=O)N(CC#CCN2CCCC2)C1	Muscarinic acetylcholine receptor M2 (Rattus norvegicus, UniProt P10980)	13000
CC1CCN(CC#CCN(C)C)C1=O (stereo not given)	Muscarinic acetylcholine receptor M2 (Rattus norvegicus, UniProt P10980)	1300

Task: For the molecule shown here, C[C@@H]1CC(=O)N(CC#CC[N+](C)(C)C)C1 , give the reported Ki.
Result: 21000

* * *

# experimental-system: Muscarinic acetylcholine receptor M2 (Rattus norvegicus)
# test-description: Binding affinity at [3H]QNB and GppNHp radiolabeled muscarinic M2 receptor in rat heart.
pKi: −log10 of the molar value.
Rule: pKi of 5 or more gives criterion met; anything lower gives criterion not met.

Illustrative cases are given below, each with its answer.
molecule-smiles	category
O=C1CCCN1CC#CCN1CCCCC1	criterion met
C[C@@H]1CCN(CC#CCN2CCCC2)C1=O	criterion met
C[C@@H]1CC(=O)N(CC#CCN2CCCC2)C1	criterion not met
C[C@H]1CCN(CC#CCN2CCCC2)C1=O	criterion met
C[C@@H]1CC(=O)N(CC#CC[N+](C)(C)C)C1	criterion not met

Task: Answer whether pKi of C[C@H]1CCN(CC#CCN(C)C)C1=O is greater than or equal to 5.
Result: criterion not met

Task: Form field: pKi at least 5? Entry: O=C1CCCN1CC#CCN1CCCC1
Result: criterion met

* * *

# experimental-system: Muscarinic acetylcholine receptor M2 (Rattus norvegicus)
# test-description: Relative [3H]QNB and [3H]-CD binding to muscarinic M2 receptor
reported-property: Ratio
One number for each entry.

// below: answered molecules
molecule	result-number
CC(=O)N(C)C(C)C#CCN1CCCC1 (stereo not drawn)	19.5
C[N+](C)(C)CC#CCN1CCCC1=O [OXOTREMORINE METHIODIDE]	1200

# context switch: different molecule, same Ratio
Task: Field request: Ratio | item: CN(C)CC#CCN1CCCC1=O
Result: 460

* * *

# experimental-system: UniProtKB P08482
# Sequence (P08482 whole entry): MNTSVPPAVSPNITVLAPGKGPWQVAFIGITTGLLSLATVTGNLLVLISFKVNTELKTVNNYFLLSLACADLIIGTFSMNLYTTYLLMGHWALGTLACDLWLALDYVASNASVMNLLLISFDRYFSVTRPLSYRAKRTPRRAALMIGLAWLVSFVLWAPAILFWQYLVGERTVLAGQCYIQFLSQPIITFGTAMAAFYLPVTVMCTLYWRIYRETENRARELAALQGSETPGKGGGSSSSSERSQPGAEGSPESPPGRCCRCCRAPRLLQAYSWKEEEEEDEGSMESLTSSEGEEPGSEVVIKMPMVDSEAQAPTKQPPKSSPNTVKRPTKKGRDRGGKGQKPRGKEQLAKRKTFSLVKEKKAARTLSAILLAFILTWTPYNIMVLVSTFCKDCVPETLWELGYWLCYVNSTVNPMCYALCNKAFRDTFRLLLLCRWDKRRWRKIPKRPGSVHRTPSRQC
Hi! Could you tag entries with Ki below 0.2 µM as MET, and those at or above as NOT MET? Much appreciated.

Here are 8 molecules together with their reported answers.
molecule	experimental-system	category
C[C@@H]1CC(=O)N(CC#CCN(C)C)C1	UniProtKB P08482	NOT MET
C[C@@H]1CC(=O)N(CC#CC[N+](C)(C)C)C1	UniProtKB P08482	NOT MET
O=C1CCCN1CC#CCN1CCCC1	UniProtKB P08482	MET
CC(=O)N(C)C(C)C#CCN1CCCC1 (centres undefined)	UniProtKB P08482	MET
C[C@@H]1CC(=O)N(CC#CCN2CCCC2)C1	UniProtKB P08482	NOT MET
C[C@H]1CC(=O)N(CC#CCN(C)C)C1	UniProtKB P08482	NOT MET
C[C@@H]1CCN(CC#CCN2CCCC2)C1=O	UniProtKB P08482	NOT MET
C[C@H]1CC(=O)N(CC#CC[N+](C)(C)C)C1	UniProtKB P08482	NOT MET

Okay, next one:
Task: Item CC1CCN(CC#CCN(C)C)C1=O (centres undefined) : Ki beneath 0.2 µM, strictly?
Result: NOT MET
